The origin of these recorded values is ChEMBL document CHEMBL1667759.

system: Felis catus; test: Hypotensive activity in normotensive cat assessed as reduction in diastolic blood pressure at 500 mg/kg, iv; assay type: functional; details: Artery
Where a name gives a salt, the structure may show the parent alone.
Overview of recorded inhibition in vivo at 500 mg/kg for various compounds
Write the answer as a number in %, unit excluded.

Solved entries:
compound	inhibition in vivo at 500 mg/kg, %
COc1cc2nc(C)n(NC(=O)CCN3CCN(C(=O)c4ccco4)CC3)c(=O)c2cc1OC	11.1
COc1ccccc1N1CCN(Cc2nc3ccccc3c(=O)[nH]2)CC1	21.7
CCOC(=O)c1nc2cc(OC)c(OC)cc2c(=O)n1NC(=O)CCN1CCN(c2ccccc2OC)CC1	13.9
COc1cc2nc(C)n(NC(=O)CCN3CCN(c4ccccc4)CC3)c(=O)c2cc1OC	13.9
COc1cc2nc(C)n(NC(=O)CN3CCN(c4ccccc4OC)CC3)c(=O)c2cc1OC	2.78

Task item: Fill in the recorded inhibition in vivo at 500 mg/kg for this compound, with Felis catus as test system: `COc1cc2nc(C)n(NC(=O)CCN3CCN(c4ccc([N+](=O)[O-])cc4)CC3)c(=O)c2cc1OC`
Reply: 6.82

Task item: Next compound: COc1cc2nc(N3CCN(C(=O)c4ccco4)CC3)nc(N)c2cc1OC [PRAZOSIN HYDROCHLORIDE]
Reply: 29

Task item: Note, next up: `COc1cc2nc(C)n(NC(=O)CCN3CCN(c4ccccc4OC)CC3)c(=O)c2cc1OC`
Reply: 40

Task item: Request: `COc1ccccc1N1CCN(CC(=O)Nn2c(C)nc3ccccc3c2=O)CC1`
Reply: 0

Task item: Would you kindly repeat that for `CCOC(=O)c1nc2cc(OC)c(OC)cc2c(=O)n1NC(=O)CN1CCN(c2ccccc2OC)CC1` ?
Reply: 4.02

###

organism: Rattus norvegicus; test: Vasodilatory activity in Wistar rat aortic rings without endothelium assessed as reduction in norepinephrine hydrochloride-induced vasoconstriction; type: functional; conditions: Wister, Aorta
Where a name gives a salt, the structure may show the parent alone.
measured property: pIC50
API: returns pIC50 as number; meaning -log10 of concentration in mol/L.

Example compounds with recorded pIC50:
compound	pIC50
COc1cc2nc(C)n(NC(=O)CCN3CCN(c4ccccc4OC)CC3)c(=O)c2cc1OC	3.70
COc1ccccc1N1CCN(Cc2nc3ccccc3c(=O)[nH]2)CC1	3.52
COc1cc2nc(N3CCN(C(=O)c4ccco4)CC3)nc(N)c2cc1OC [PRAZOSIN HYDROCHLORIDE]	3.31

Task item: Entry under review: `CCOC(=O)c1nc2cc(OC)c(OC)cc2c(=O)n1NC(=O)CCN1CCN(c2ccccc2OC)CC1` . Reported pIC50?
Reply: 3.40
